This section presents log10 IC50 values reported for UniProt Q28156 in the literature.
Plainly stated, the numbers are log10 of IC50 given in nM.

Solved entries (count: 3):
COc1ccc([C@@H]2c3[nH]c4ccccc4c3C[C@@H]3C(=O)N([C@@H]4CCN(Cc5ccccc5)C4)CC(=O)N23)cc1O | 1.75
COc1ccc([C@@H]2c3[nH]c4ccccc4c3C[C@@H]3C(=O)N(C4CCCC4)CC(=O)N23)cc1 | 1.23
CCC(=O)N(CC)c1cc2c(NCc3ccc(OC)c(Cl)c3)ncnc2c(CCO)c1OC | 0.00

The recorded log10 IC50 with UniProt Q28156 for COc1ccc([C@@H]2c3[nH]c4ccccc4c3C[C@@H]3C(=O)N(C)C(=O)N23)cc1 was 1.00

The recorded log10 IC50 with UniProt Q28156 for CN1C(=O)c2c(nc(CN3CCCC3)n2Cc2ccccc2)N2C1=N[C@@H]1CCC[C@@H]12 was 3.08

The recorded log10 IC50 with UniProt Q28156 for Cc1cccc(N2CC(=O)N3[C@H](c4ccc5c(c4)OCO5)c4[nH]c5ccccc5c4C[C@@H]3C2=O)c1 was 1.83

The recorded log10 IC50 with UniProt Q28156 for CCN1C(=O)[C@H]2Cc3c([nH]c4ccccc34)[C@H](c3ccc(OC)cc3)N2C1=O was 0.85

---

This section presents log10(IC50) values reported for cGMP-specific 3',5'-cyclic phosphodiesterase (Bos taurus, UniProt Q28156) in the literature.
Plainly stated, the numbers are log10 of IC50 given in nM.

Solved entries (count: 5):
CN1C(=O)c2c(nc(Cc3ccc(-c4ccccc4)cc3)n2Cc2ccccc2)N2C1=N[C@@H]1CCC[C@@H]12 | 2.48
COC(=O)Nc1cc2c(NCc3ccc(OC)c(Cl)c3)ncnc2c(CCO)c1OC | 0.48
CN1C(=O)c2[nH]c(-c3ccccc3)nc2N2CC3(CCCC3)N=C12 | 3.52
CCCCN1CC(=O)N2[C@H](c3ccc(OC)cc3)c3[nH]c4ccccc4c3C[C@@H]2C1=O | 0.70
CCCCN1C(=O)[C@H]2Cc3c([nH]c4ccccc34)[C@H](c3cccc(Cl)c3)N2C1=O | 1.70

The recorded log10(IC50) with cGMP-specific 3',5'-cyclic phosphodiesterase (Bos taurus, UniProt Q28156) for CC(C)N1CC(=O)N2[C@H](c3ccc4c(c3)OCO4)c3[nH]c4ccccc4c3C[C@@H]2C1=O (stereo in doubt; 14) was 0.90

The recorded log10(IC50) with cGMP-specific 3',5'-cyclic phosphodiesterase (Bos taurus, UniProt Q28156) for O=C1[C@H]2Cc3c([nH]c4ccccc34)[C@@H](c3ccc4c(c3)OCO4)N2C(=O)CN1c1ccc(C(F)(F)F)cc1 was 2.58

The recorded log10(IC50) with cGMP-specific 3',5'-cyclic phosphodiesterase (Bos taurus, UniProt Q28156) for COc1ccc([C@@H]2c3[nH]c4ccccc4c3C[C@@H]3C(=O)N(C)CC(=O)N23)cc1 was 1.61

The recorded log10(IC50) with cGMP-specific 3',5'-cyclic phosphodiesterase (Bos taurus, UniProt Q28156) for COc1ccc([C@H]2c3[nH]c4ccccc4c3C[C@@H]3C(=O)NC(=O)N23)cc1 was 1.30

The recorded log10(IC50) with cGMP-specific 3',5'-cyclic phosphodiesterase (Bos taurus, UniProt Q28156) for COCc1nc2c(n1Cc1ccccc1)C(=O)N(C)C1=N[C@@H]3CCC[C@@H]3N12 was 3.00

The recorded log10(IC50) with cGMP-specific 3',5'-cyclic phosphodiesterase (Bos taurus, UniProt Q28156) for O=C1[C@H]2Cc3c([nH]c4ccccc34)[C@@H](c3ccc4nsnc4c3)N2C(=O)CN1[C@@H]1CCN(Cc2ccccc2)C1 was 1.45

The recorded log10(IC50) with cGMP-specific 3',5'-cyclic phosphodiesterase (Bos taurus, UniProt Q28156) for CCCCN1CC(=O)N2C(c3ccc(Cl)cc3)c3[nH]c4ccccc4c3C[C@@H]2C1=O (some centres undefined) was 1.18

The recorded log10(IC50) with cGMP-specific 3',5'-cyclic phosphodiesterase (Bos taurus, UniProt Q28156) for CN(C)C(=O)CN1CC[C@@H](N2CC(=O)N3[C@H](c4ccc5c(c4)OCO5)c4[nH]c5ccccc5c4C[C@@H]3C2=O)C1 was 0.48

The recorded log10(IC50) with cGMP-specific 3',5'-cyclic phosphodiesterase (Bos taurus, UniProt Q28156) for CN1C(=O)c2c(nn(C)c2Cc2ccccc2)N2CC(C)(C)N=C12 was 2.15

The recorded log10(IC50) with cGMP-specific 3',5'-cyclic phosphodiesterase (Bos taurus, UniProt Q28156) for CCCCN1CC(=O)N2C(c3ccccc3)c3[nH]c4ccccc4c3C[C@@H]2C1=O (some centres undefined) was 1.96

The recorded log10(IC50) with cGMP-specific 3',5'-cyclic phosphodiesterase (Bos taurus, UniProt Q28156) for CN1C(=O)c2c(nc(CC3CC3)n2Cc2ccccc2)N2C1=N[C@@H]1CCC[C@@H]12 was 2.62

The recorded log10(IC50) with cGMP-specific 3',5'-cyclic phosphodiesterase (Bos taurus, UniProt Q28156) for CCOC(=O)Nc1cc2c(NCc3ccc(OC)c(Cl)c3)ncnc2c(CCO)c1OC was 1.23

The recorded log10(IC50) with cGMP-specific 3',5'-cyclic phosphodiesterase (Bos taurus, UniProt Q28156) for COc1ccc([C@@H]2c3[nH]c4ccccc4c3C[C@@H]3C(=O)N(C4CCCCC4)C(=O)N23)cc1 was 0.85

The recorded log10(IC50) with cGMP-specific 3',5'-cyclic phosphodiesterase (Bos taurus, UniProt Q28156) for O=C1[C@H]2Cc3c([nH]c4ccccc34)[C@@H](c3ccc4c(c3)OCO4)N2C(=O)CN1c1cccnc1 was 1.45

The recorded log10(IC50) with cGMP-specific 3',5'-cyclic phosphodiesterase (Bos taurus, UniProt Q28156) for CN1C(=O)c2c(nc(Cc3ccccc3)n2C)N2CC3(CCCC3)N=C12 was 3.65

The recorded log10(IC50) with cGMP-specific 3',5'-cyclic phosphodiesterase (Bos taurus, UniProt Q28156) for CN1C(=O)c2c(nc(C(F)(F)F)n2Cc2ccccc2)N2C1=N[C@@H]1CCC[C@@H]12 (racemic) was 2.60

The recorded log10(IC50) with cGMP-specific 3',5'-cyclic phosphodiesterase (Bos taurus, UniProt Q28156) for O=C1[C@H]2Cc3c([nH]c4ccccc34)[C@@H](c3ccc4c(c3)OCO4)N2C(=O)CN1Cc1ccccc1 was 0.48

The recorded log10(IC50) with cGMP-specific 3',5'-cyclic phosphodiesterase (Bos taurus, UniProt Q28156) for COc1ccc(CNc2ncnc3c(CCO)c(OC)c(N(C)C(=O)C4CC4)cc23)cc1Cl was 0.00
